Tested on: Plasmodium falciparum
Experiment: GSK_TCMDC: Inhibition of Plasmodium falciparum Dd2 in whole red blood cells, using parasite LDH activity as an index of growth. Test compounds present at 2uM
Type: functional
Quantity Measured: Inhibition (%)
One number for each entry, in %.

Consider the worked cases shown below.
Molecule: Cc1ccccc1C(=O)NC(NC(=S)Nc1ccc([N+](=O)[O-])cc1)C(Cl)(Cl)Cl (stereo not drawn)
Observed Value: 39
--
Molecule: COc1cccc(CNCC(C)(C)c2nc(-c3ccc(Cl)c(O)c3)c(-c3ccncc3)[nH]2)c1.Cl
Observed Value: 98
--
Molecule: COc1ccc2nccc(NCC3(O)CCN(CCc4ccc5c(c4)OCCO5)CC3)c2n1.Cl
Observed Value: 87

For every item in the list below, what is its measured Inhibition?
1. O=C(O)C(F)(F)F.O=C1OC(c2ccccc2)(c2ccccn2)CN1C1CCN(Cc2cccn2-c2ccc(Cl)cc2)CC1 (stereo not drawn)
2. CC1CN(c2cnn(C/C=C/c3ccc(NC(=O)c4ccc(Cl)cc4)cc3)c(=O)c2Cl)CC(C)N1.O=C(O)C(F)(F)F (stereo not drawn)
3. O=C(Nc1ccc(N2CCCCC2)c(Cl)c1)c1ccco1
4. CN1CCN(Cc2ccc(-c3ccc4c(Nc5ccc(Oc6ccccc6)cc5)ccnc4c3)o2)CC1
5. CN(C)CCC1CCCc2ccc(NC(=O)Nc3ccc(-c4ccncc4)c4ccccc34)cc21.Cl (stereo not drawn)
6. CC(CNc1nc(NCC(c2ccccc2)c2ccccc2)c2nc[nH]c2n1)c1ccccc1 (stereo not drawn)

Completion:
1: 98; 2: 82; 3: 95; 4: 99; 5: 27; 6: 24

For every item in the list below, what is its measured Inhibition?
1. CCCCCC(C)C(C)c1cc(O)c2c(c1)OC(C)(C)CC2(O)c1ccnn1C (stereo not drawn)
2. O=C(O)C(F)(F)F.O=c1ccc2ccc(F)c3c2n1CC3CN1CCC(NCc2ccc(-c3cccc(Cl)c3)nc2)CC1 (stereo not drawn)
3. CCN(CCCN1CCCCC1)c1cc(C)nc(Nc2ccc(Br)cc2F)n1.O=C(O)C(F)(F)F
4. CC12CCC(=O)N1C(C(=O)Nc1cccc(C(=O)Nc3cccc(C(F)(F)F)c3)c1)CS2 (stereo not drawn)
5. COc1ccc(CNc2ccnc(-n3cnc4cc(C)c(C)cc43)n2)cc1Cl.O=C(O)C(F)(F)F
6. O=C(Nc1ccc(F)c([N+](=O)[O-])c1)Nc1cc(C(F)(F)F)ccc1Cl

Completion:
[95, 33, 24, 89, 100, 86]

For every item in the list below, what is its measured Inhibition?
1. CN(CCCN(C)c1cc(NC(=O)c2cccc(F)c2)ccn1)Cc1cccc(O)c1.O=C(O)C(F)(F)F
2. COCC(C)n1c(SC(C)C(=O)Nc2cc([N+](=O)[O-])ccc2Cl)nc2ccccc2c1=O (stereo not drawn)
3. CCc1c(CCNCCCCCCNCCc2ccc(Br)cc2)ccc(OC)c1OC.Cl

Completion:
[4, 94, 14]

====

Test system: Plasmodium falciparum
Assay: GSK_TCMDC: Inhibition of Plasmodium falciparum Dd2 in whole red blood cells, using parasite LDH activity as an index of growth. Test compounds present at 2uM
Format: functional
So I've got a bunch of molecules here, and I need their Inhibition values.
Write the figure, then the unit, nothing else.

Consider the worked cases shown below.
Molecule: Cc1[nH]c2c(C)cccc2c1C1CCN(CCC2CCN(C(=O)/C=C/c3ccc(Cl)c(Cl)c3)CC2)CC1
System: Plasmodium falciparum
Inhibition: 79%
//
Molecule: COc1ccc(-c2nnc(Sc3ccc(C#N)c([N+](=O)[O-])c3)n2CCC(C)C)cc1
System: Plasmodium falciparum
Inhibition: 53%
//
Molecule: CCOc1ccc2nc(C)cc(N/N=C/c3ccccc3[N+](=O)[O-])c2c1
System: Plasmodium falciparum
Inhibition: 99%
//
Molecule: N=C(N)NN=CC(=O)Nc1ccc(C(F)(F)F)cc1.O=S(=O)(O)O
System: Plasmodium falciparum
Inhibition: 9%
//
Molecule: O=C(Nc1cccc(-c2ccc(-c3nc4cc(F)ccc4[nH]3)cc2)c1)Nc1ccc(Cl)c(Cl)c1
System: Plasmodium falciparum
Inhibition: 49%

For every item in the list below, what is its measured Inhibition?
1. CS(=O)(=O)CCNCc1cccc(-c2cc3c(Nc4ccc(OCc5ccccc5)cc4)ncnc3cn2)c1.Cl
2. COc1ccc(Nc2nccc(-c3ccc(NC(=O)c4cc5cc(F)ccc5[nH]4)cc3)n2)cc1
3. CC1CCCCC1N(C)C1CCN(CCCNC(=O)C=Cc2cccc(C(F)(F)F)c2)CC1 (centres undefined)

Completion:
26%
26%
17%

// Inhibition lookup, molecule = O=C(O)C(F)(F)F.c1cc(CN2CCN(c3ccncc3)CC2)cc(-c2ccc(-c3nc4ccccc4[nH]3)s2)c1 , result: 100%
